test-summary: Basicity of hydrogen bond, pKHB of compound by IR spectroscopy
Assay type: physicochemical
parameter: pKHB

Examples with answers:
CP(C)(C)=O ... 3.444
CP(C)(C)=S ... 1.533
CCOP(=O)(OCC)OCC [TRIETHYL PHOSPHATE] ... 2.574
CP(C)(C)=[Se] ... 1.519

Could you tell me which pKHB is on file for CCOP(=O)(OCC)SCC ?
2.377
